study system: T1, mouse CLDN6 fused to GFP, expressed on engineered HEK293T cells (mouse, UniProt Q9Z262 1-219)
T1 construct: whole, on cells; also called HEK293T-CLDN6-mGFP Artificial CLDN6+ (mouse); murine CLDN6; not shown: GFP tag
T1 sequence (looked up): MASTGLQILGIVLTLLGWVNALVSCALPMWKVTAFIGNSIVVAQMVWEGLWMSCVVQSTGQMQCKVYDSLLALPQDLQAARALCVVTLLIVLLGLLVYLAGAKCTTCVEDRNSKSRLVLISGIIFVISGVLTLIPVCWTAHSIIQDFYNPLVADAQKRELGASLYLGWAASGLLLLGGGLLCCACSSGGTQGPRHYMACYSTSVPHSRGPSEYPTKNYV
test name: FACS, 293T clone with mouse CLDN6
Some binders, each annotated with its measured FACS signal.

binder: AB4-7 (antibody, V domains shown, Humanized; also called humanized AB 4-7) VH: QVQLVQSGAEVKKPGASVKMSCKASGYTFTSYTMHWIRQAPGQGQEWIGYINPSSTYTHYAQKFQGRATLTADKSTSTAYMELSSLRSEDTAVYYCSRGELGGFAYWGQGTLVTVSS VL: DVVMTQSPLSLPVTLGQPASISCRSSQSLVHSDGNTYLNWYQQRPGQSPRLLIYKVSNRFSGVPDRFSGSGSGTDFTLKISRVEAEDVGVYYCSQSTHVPYTFGQGTKLEIK
FACS signal: 6640

binder: AB1-8 (antibody, V domains shown, Humanized; also called humanized AB 1-8) VH: QVQLVQSGAEVKKPGASVKMSCKASGYTFTTYTMHWVRQAPGQGLEWIGFINPSSGYTDYAQKFQGRVTLTADTSTSTVYMELSSLRSEDTAVYYCANGDYYVAYWGQGTLVTVSS VL: DIQLTQSPSSLSASVGDRVTMTCTASSSVSSTYFHWYQQKPGKAPKLWIYSTSNLASGVPSRFSGSGSGTDYTLTISSMQPEDAATYYCHQYHRSPLTFGQGTKLEIK
FACS signal: 122000

binder: AB1-Chim (antibody, V domains shown, Parental antibody prior to humanization ('chim'); also called pre-humanized form of AB1) VH: QVQLQQSAAELARPGASVKMSCKASGYTFTTYTMHWVKQRPGQGLEWIGFINPSSGYTDYNQKFKDRTTLTADKSSSTVYMQLSSLTSEDSAVYYCANGDYYVAYWGQGTLVTVSA VL: QIVLTQSPAIMSASLGERVTMTCTASSSVSSTYFHWYQQKPGSSPKLWIYSTSNLASGVPRRFSGSASGTSYSLTISSMEAEDAATYYCHQYHRSPLTFGAGTKLELK
FACS signal: 514000

Query (binder): AB3-3 (antibody, V domains shown, Humanized; also called humanized AB 3-3) VH: EVQLLESGGGLVQPGGSMRLSCAASGFTFSNYWMNWVRQAPGKGLEWVAQIRLKSDNYATHYADSVKGRFTISRDDSKNTVYLQMNSLRAEDTGVYYCNDGPPSGCWGQGTLLTVSS VL: DIQMTQSPSSLSASVGDRVTITCRISENIYSYLAWYQQKPGKAPKLLVYNAKILVEGVPSRFSGSGSGTDFTLTISSLQPEDFGTYYCQHHYTVPWTFGQGTKLEIK ; field requested: FACS signal
23000

Query (binder): AB4-9 (antibody, V domains shown, Humanized; full-length IgG; see note of AB4-8; also called humanized AB 4-9) VH: QVQLVQSGAEVKKPGASVKMSCKASGYTFTSYTMHWIRQAPGQGLEWIGYINPSSTYTHYIKKFKDRATLTADTSTSTAYMELSSLRSEDTAVYYCSRGELGGFAYWGQGTLVTVSS VL: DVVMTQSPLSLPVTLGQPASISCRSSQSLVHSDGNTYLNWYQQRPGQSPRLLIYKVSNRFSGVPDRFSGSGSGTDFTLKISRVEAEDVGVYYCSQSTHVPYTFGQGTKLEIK ; field requested: FACS signal
1780

Value source: patent US20220177583A1
